For each entry below, report its EC50 value.
- experiment: NIH3T3 cell viability loss – ATP luminescence, mouse fibroblasts, counter-screen, dose response (AID 2010);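 also: cells exposed to compound for about 90 hours before reading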
- Format: functional, cell-based
Active and inactive are the calls of the source.

Incoming: Form field: reported EC50 of CC(=O)Nc1nc(C)c(-c2csc(Nc3cccc([N+](=O)[O-])c3)n2)s1
Outgoing: 14.1 µM (active)

Incoming: // same read-out, input: COc1ccc(Br)cc1CNCCc1cccc(Cl)c1
Outgoing: > 60 µM (not active)

Incoming: Would you mind doing Cc1nc(NC(=O)C23CC4CC(CC(C4)C2)C3)sc1Cc1ccc2c(c1)OCO2 as well?
Outgoing: > 60 µM (not active)

---

For each record, write down the corresponding IC50.
- system-tested: UniProt Q9GZV3
- Sequence (Q9GZV3 whole entry): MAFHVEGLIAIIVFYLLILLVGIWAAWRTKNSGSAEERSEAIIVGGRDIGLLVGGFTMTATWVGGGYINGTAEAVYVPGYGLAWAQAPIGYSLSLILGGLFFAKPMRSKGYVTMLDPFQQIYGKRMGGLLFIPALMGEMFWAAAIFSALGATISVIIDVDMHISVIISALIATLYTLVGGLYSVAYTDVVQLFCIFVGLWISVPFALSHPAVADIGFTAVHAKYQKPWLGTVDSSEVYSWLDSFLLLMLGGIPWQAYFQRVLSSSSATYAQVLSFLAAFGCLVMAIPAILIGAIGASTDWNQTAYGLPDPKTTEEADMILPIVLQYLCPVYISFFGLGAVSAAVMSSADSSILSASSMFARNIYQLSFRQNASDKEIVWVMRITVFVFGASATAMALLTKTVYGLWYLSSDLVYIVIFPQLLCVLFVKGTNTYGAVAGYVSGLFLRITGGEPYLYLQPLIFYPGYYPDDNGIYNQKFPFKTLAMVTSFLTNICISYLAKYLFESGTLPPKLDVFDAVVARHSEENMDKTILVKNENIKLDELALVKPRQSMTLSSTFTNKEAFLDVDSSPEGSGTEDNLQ
- experiment: human choline transporter blockers, potency – cell-based, 5-point CRC, membrane potential dye, dose response (AID 504840)
- Format: functional
Activity calls are given as the source filed them.

Incoming: So what does the record say about IC50 for CC(C)(C)c1ccc(C(=O)CSc2nnc[nH]2)cc1 ?
Outgoing: 13.2 µM (active)

Incoming: Proceed to Cc1cccc(C(=O)Nc2cccc(OCC(=O)O)c2)c1
Outgoing: 7.59 µM (active)

Incoming: And then CCN1CCCC1CNC(=O)c1ccc2c(c1)N(Cc1ccccc1F)C(=O)c1ccccc1S2(=O)=O (centres undefined) , what is it?
Outgoing: 11.2 µM (active)

Incoming: Entry to check: CC(C)(C)C(=O)Nc1scc(-c2ccc(-c3ccccc3)cc2)c1C(=O)O
Outgoing: 14.5 µM (active)

---

- experiment: Luminescence Cell-Based Dose Retest to Confirm Inhibitors of Cancer Stem Cells. [Related pubchem assays (depositor defined):AID2717, AID2721]
- Type: functional
- condition-info: Homo sapiens
Calls of active or inactive are those of the source.
measurement-name: AC50

Incoming: Entry CCc1ccc2c(c1)[C@H]1OCC[C@H]1[C@@H](c1cccs1)N2 : reported AC50 = ?
Outgoing: 2.97 µM (active)

Incoming: Ok, now O=C(NCCc1ccccc1)c1cc(-c2ccccc2)c(N2CCOCC2)s1
Outgoing: 3.48 µM (active)

Incoming: # repeat for CC(C)Cc1nc2oc3c(Cl)ncnc3c2c2c1CCC2
Outgoing: 4.61 µM (active)

---

Would you kindly list AC50 for each of these compounds?
- system-tested: UniProt P33261
- Sequence (P33261 whole entry): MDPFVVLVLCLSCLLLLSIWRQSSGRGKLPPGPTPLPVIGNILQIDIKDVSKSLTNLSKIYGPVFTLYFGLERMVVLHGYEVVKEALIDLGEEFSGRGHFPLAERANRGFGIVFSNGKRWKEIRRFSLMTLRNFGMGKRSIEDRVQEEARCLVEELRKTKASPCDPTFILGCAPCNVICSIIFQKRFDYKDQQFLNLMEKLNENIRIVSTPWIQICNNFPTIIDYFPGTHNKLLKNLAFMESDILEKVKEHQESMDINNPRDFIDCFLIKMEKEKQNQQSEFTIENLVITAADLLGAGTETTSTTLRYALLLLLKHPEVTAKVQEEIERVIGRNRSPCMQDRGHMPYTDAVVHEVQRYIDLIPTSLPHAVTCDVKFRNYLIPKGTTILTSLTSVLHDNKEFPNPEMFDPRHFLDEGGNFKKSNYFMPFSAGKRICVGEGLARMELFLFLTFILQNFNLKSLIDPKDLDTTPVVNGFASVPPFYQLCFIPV
- experiment: Cytochrome panel assay with activity outcomes. Panel member name: p450-cyp2c19 Compounds with AC50 equal or less than 10 uM are considered active
- Format: functional
- condition-info: read-out: AC50

Incoming: GET /values?readout=AC50&item= Brc1ccccc1OCCOCCOc1cccc2cccnc12
Outgoing: 3.16 µM (inconclusive)

Incoming: Also O=C(NCCc1c[nH]c2ccccc12)C1CCN(c2nnc(N3CCCC3=O)s2)CC1 ?
Outgoing: 7.94 µM (inconclusive)

Incoming: Entry C[C@@]12CC[C@@H]3c4ccc(O)cc4CC[C@H]3[C@H]1C[C@@H](O)[C@H]2O please
Outgoing: 7.94 µM (inconclusive)

Incoming: Quick one: O=c1c(-c2nc3ccccc3s2)cccn1Cc1ccc(Cl)cc1
Outgoing: 1.12 µM (inconclusive)

Incoming: Please answer likewise for CSc1nc(-c2ccccc2)nn1C(=O)c1ccccc1
Outgoing: 0.1 µM (inconclusive)

Incoming: Next up: COc1cccc(-c2nc(NCCN3CCOCC3)c3ccccc3n2)c1
Outgoing: 20 µM (inconclusive)

Incoming: And then COc1ccc(C(=O)/C=C(/C)N(C)C)cc1 , what is it?
Outgoing: 11.2 µM (inconclusive)

Incoming: Next entry: COc1ccc(-c2[nH]c(-c3ccc(C(=O)O)cc3)nc2-c2ccccc2)cc1
Outgoing: 39.8 µM (inconclusive)

Incoming: Next entry: CN1C2C=C(N(CCc3c[nH]c4ccccc34)C(=O)c3ccc(Cl)cc3)CC1CC2 (stereo not given)
Outgoing: 5.01 µM (inconclusive)

Incoming: Now consider Cc1ccc(NC(=O)c2sc3ncnc(O)c3c2C)c(C)c1 .
Outgoing: 14.1 µM (inconclusive)

Incoming: Next record, please: NC(=O)C1CCN(C(=O)CN2C(=O)c3ccccc3S2(=O)=O)CC1
Outgoing: 14.1 µM (inconclusive)

Incoming: Moving on to COc1ccc(C(C(=O)NC2CCCCC2)N(C(=O)CCCC(=O)Nc2ccccn2)c2ccc3c(c2)OCCO3)cc1 (stereo not given)
Outgoing: 7.94 µM (inconclusive)

Incoming: How about this compound: COc1cc(C(=O)NCCC(=O)NCc2ccc3c(c2)OCO3)cc(OC)c1OC
Outgoing: 28.2 µM (inconclusive)

Incoming: Same for C#CCCCO/N=C1/C[C@@H](O)[C@@H](O)[C@@H]2[C@@H]3C(=O)N(Cc4ccccc4)C(=O)[C@H]3CC[C@H]12
Outgoing: 5.01 µM (inconclusive)

Incoming: Please answer likewise for O=C(O)CSc1ncnc2sc3c(c12)CCC3
Outgoing: 39.8 µM (inconclusive)

---

- system-tested: Dual specificity tyrosine-phosphorylation-regulated kinase 1A (Rattus norvegicus)
- Format: biochemical, Homo sapiens
Calls of active or inactive are those of the source.
measurement-name: AC50

Incoming: Given the molecule C[C@@H]1O[C@@H](OC[C@H]2O[C@@H](Oc3cc(O)c4c(=O)cc(-c5ccc(O)c(O)c5)oc4c3)[C@H](O)[C@@H](O)[C@@H]2O)[C@H](O)[C@H](O)[C@H]1O , what is its reported AC50?
Outgoing: 15.8 µM (active)

Incoming: Then O=C(O)/C=C/c1cccc(NC(=O)Nc2ccc([N+](=O)[O-])cc2)c1 ?
Outgoing: 5.42 µM (active)

Incoming: N#Cc1c(N2CCCC2)nc(N)c2c(N)nc(N3CCCC3)cc12 ?
Outgoing: 0.287 µM (active)

Incoming: Thanks! And CCc1nccc2c1[nH]c1ccccc12 ?
Outgoing: 5.67 µM (active)

Incoming: For C(=N\Nc1[nH]cnc2ncnc1-2)/c1cccs1 then?
Outgoing: 5.83 µM (active)

---

Here's what we have: AC50 numbers for Cytochrome P450 3A4 (Homo sapiens, UniProt P08684).

Incoming: Quick one: AC50 of CN1C2C=C(N(CCc3c[nH]c4ccccc34)C(=O)c3ccc(Cl)cc3)CC1CC2 (stereo unspecified) ?
Outgoing: 17.8 µM (inconclusive)

Incoming: Repeat with COc1ccc(C(=O)/C=C(/C)N(C)C)cc1
Outgoing: 5.01 µM (inconclusive)

Incoming: Same again, this time with CN1CCN(c2ncnc3ccc(-c4cccc(C#N)c4)cc23)CC1
Outgoing: 25.1 µM (inconclusive)

Incoming: Also COc1cc2c(c(OC)c1OC)-c1ccc(O)c(=O)cc1[C@H](N)CC2 , if possible.
Outgoing: 3.16 µM (inconclusive)

Incoming: Further, for CCCSc1nc(SCC(=O)NCc2ccccc2)c2c3c(sc2n1)COC(C)(CC)C3 (stereo unspecified) ?
Outgoing: 7.08 µM (inconclusive)

Incoming: Repeat with Brc1ccccc1OCCOCCOc1cccc2cccnc12
Outgoing: 39.8 µM (inconclusive)
